Catalogue of % Blocking readings, one per entry.
test target: T1, human chemokine (C-C motif) receptor 8 (CCR8) (human, UniProt P51685 1-355)
T1 construct: On human peripheral blood lymphocytes / PBMC (native) or on human CCR8 GFP-transfected Ba/F3 cells; also called hCCR8; human CCR8
T1 sequence (P51685 whole entry): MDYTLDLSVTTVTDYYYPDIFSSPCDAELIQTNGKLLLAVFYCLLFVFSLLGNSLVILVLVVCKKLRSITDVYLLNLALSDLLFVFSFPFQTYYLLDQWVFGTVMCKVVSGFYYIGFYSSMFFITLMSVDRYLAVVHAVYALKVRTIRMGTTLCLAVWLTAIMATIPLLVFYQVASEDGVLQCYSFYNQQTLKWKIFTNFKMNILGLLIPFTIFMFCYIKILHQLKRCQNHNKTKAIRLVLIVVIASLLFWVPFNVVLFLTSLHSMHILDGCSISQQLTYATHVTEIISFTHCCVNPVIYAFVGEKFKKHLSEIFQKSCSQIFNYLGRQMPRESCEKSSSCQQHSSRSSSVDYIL
assay procedure: flow cytometry blocking, PBMC CCR8+ CD4+ cells; competitor PE-AB12 (its MFI is read)
Method: For blocking studies, 100 μL of the cell suspension were incubated with 10 μg purified isotype control, AB1, AB2, AB3, AB4, AB5, AB8, AB9, AB10, AB11, AB12, AB13, AB14, AB15, and Commercial ABI antibodies, or isotype control, as blocking agents. […]

{"binder": "AB2 (antibody, V domains shown, Hybridoma monoclonal; also called antibody 2; clone 2) VH: QVQLKESGPGLVKPSETLSLTCTVSGFSLTSYHISWVRQPPGKGLEWMGVIWGDGSKTYNSALKSRLSISRDTSKSQVFLKMRSLKTEDTATYYCARGGDSGFAYWGQGTLVTVSS VL: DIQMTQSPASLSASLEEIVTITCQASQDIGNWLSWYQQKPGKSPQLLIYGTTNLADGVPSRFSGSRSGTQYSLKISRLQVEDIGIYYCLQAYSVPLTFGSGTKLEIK", "unit tag": "%", "% Blocking": -9.94}
{"binder": "AB14 (antibody, V domains shown, Hybridoma monoclonal; also called antibody 14; clone 14) VH: EVQLVESGGGLVQPKGSLKLSCAASGFTFNTYAMNWVRQAPGKGLEWVARIRSKSNNYATYYVDSVKDRFTISRDDSQSMLYLQINNLKTEDTAMYYCVRGRELGPYSAMDYWGQGTSVTVSS VL: DIVMTQAAPSVPVTPGESVSISCRSSKSLLHSNGNTYLYWFLQRPGQSPQLLIYRMSNLASGVPDRFSGSGSGTAFTLRISRVEAEDVGLYYCMQHLEYPFTFGGGTKLEIK", "unit tag": "%", "% Blocking": 43.3}
{"binder": "AB11 (antibody, V domains shown, Hybridoma monoclonal; also called antibody 11; clone 11) VH: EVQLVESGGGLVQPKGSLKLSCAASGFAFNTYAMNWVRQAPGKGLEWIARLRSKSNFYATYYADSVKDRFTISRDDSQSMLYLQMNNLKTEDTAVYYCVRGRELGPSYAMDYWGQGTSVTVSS VL: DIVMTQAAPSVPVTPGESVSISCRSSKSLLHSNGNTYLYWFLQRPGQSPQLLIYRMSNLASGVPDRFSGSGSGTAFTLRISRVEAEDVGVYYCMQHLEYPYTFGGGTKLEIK", "unit tag": "%", "% Blocking": 0.83}
{"binder": "AB1 (antibody, V domains shown, Hybridoma monoclonal (mice or rats immunised); Used purified and PE-conjugated; also called antibody 1; clone 1) VH: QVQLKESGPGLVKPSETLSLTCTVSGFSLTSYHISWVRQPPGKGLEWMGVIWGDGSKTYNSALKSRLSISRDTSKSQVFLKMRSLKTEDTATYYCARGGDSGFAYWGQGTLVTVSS VL: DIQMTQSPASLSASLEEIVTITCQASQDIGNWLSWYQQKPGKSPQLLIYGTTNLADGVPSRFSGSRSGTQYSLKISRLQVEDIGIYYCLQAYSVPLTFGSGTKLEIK", "unit tag": "%", "% Blocking": -6.83}
{"binder": "AB3 (antibody, V domains shown, Hybridoma monoclonal; also called antibody 3; clone 3) VH: QVQLKESGPGLVKPSETLSLTCTVSGFSLTSYHISWVRQPPGKGLEWMGVIWGDGKTTYNSALKSRLSISRDTSKSQVFLKMNSLKTEDTATYYCARGGDSGFAYWGQGTLVTVSS VL: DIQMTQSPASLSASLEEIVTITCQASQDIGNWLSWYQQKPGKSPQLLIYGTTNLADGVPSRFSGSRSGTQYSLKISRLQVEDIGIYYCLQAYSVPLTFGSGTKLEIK", "unit tag": "%", "% Blocking": -7.35}
{"binder": "AB5 (antibody, V domains shown, Hybridoma monoclonal; also called antibody 5; clone 5) VH: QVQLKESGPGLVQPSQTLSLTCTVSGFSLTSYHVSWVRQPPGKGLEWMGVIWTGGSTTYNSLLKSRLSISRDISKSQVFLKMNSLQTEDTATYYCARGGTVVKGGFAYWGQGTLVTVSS VL: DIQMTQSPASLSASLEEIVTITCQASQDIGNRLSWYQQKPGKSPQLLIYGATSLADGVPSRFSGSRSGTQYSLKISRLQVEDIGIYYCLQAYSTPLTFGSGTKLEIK", "unit tag": "%", "% Blocking": -17.2}
{"binder": "AB15 (antibody, V domains shown, Hybridoma monoclonal; also called antibody 15; clone 15) VH: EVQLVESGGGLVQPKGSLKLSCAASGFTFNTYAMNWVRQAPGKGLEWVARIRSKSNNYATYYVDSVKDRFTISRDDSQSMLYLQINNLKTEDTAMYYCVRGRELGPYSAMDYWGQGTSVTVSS VL: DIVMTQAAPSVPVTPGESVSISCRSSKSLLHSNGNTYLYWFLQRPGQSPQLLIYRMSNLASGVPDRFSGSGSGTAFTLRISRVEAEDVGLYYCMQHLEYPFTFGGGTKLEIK", "unit tag": "%", "% Blocking": 34.1}
